Measured values drawn from the supplement of paper PMC9170038 for this set.

Tested on: MS2 coat protein
Assay: apparent KD of MS2 coat protein, switch OFF state (with FMN for OFF switches, without FMN for ON switches); designed switch direction (-1 OFF switch, 1 ON switch): -1; higher = weaker reporter binding
Details: FMN input: 0 or 200 uM; Eterna round: R93 (includes R88 designs)
# label = true (1) if apparent KD of MS2 coat protein >= 40 nM else false (0)

Reference set (3 entries):
chain_sequence="AACUAGUGAGGAUAUACAAGAAAACAAACAAAAAUGAAGGGACAUGAGGAUCACCCAUGUAGAAGGCACUAACA [Diamond 70]" tested_system="MS2 coat protein" label_class="true (1)"
chain_sequence="AAAAAGGGAGGAUAUACAGGAGGUAAGGAAAAAAAAAAAAAACAUGAGGAUCACCCAUGUAGAAGGCUUAAAAA [Ecls2-IV]" tested_system="MS2 coat protein" label_class="false (0)"
chain_sequence="AAGUCCAUAGGAUAUAUAUGGAUAUACAUUUAUGUAGAACUACAUGAGGAUCACCCAUGUAGAAGGAUGGAAUA [Mat - Same state - Mayanna Mod - D141]" tested_system="MS2 coat protein" label_class="false (0)"

Quick check: does AAAAUGUUAGGAUAUGUGAAGGCGUCUGAUAGACGAGGCCUGCAGAAGGGACAUGAGGAUCACCCAUGUAAAAA [Mod 1 of Nando's Round 1 Power Srip] have apparent KD of MS2 coat protein greater than or equal to 40 nM?
false (0)

Quick check: does AAAGAUACAGGAUAUACAUGAGGAUCACCCAUGUGGAAUCUAAAAUGGGAAAAAGAAAGUAGAAGGGUAUAAAA [Ex 3 May 39] have apparent KD of MS2 coat protein greater than or equal to 40 nM?
true (1)

Quick check: does AACAAGACAGGAUAUACAUGAGGAUCACCCAUGUCACAAUAAAGCAGCGCAACACAAAGUAGAAGGGUCAUGGA [Ruby 10] have apparent KD of MS2 coat protein greater than or equal to 40 nM?
true (1)

Quick check: does AAAAAACAUGAGGAUCACCCAUGUGAGGAUAUCCUGGUUGAAAAAAAAAAAACAACCAGGAGAAGGCACAAAAA [EXCL-I] have apparent KD of MS2 coat protein greater than or equal to 40 nM?
true (1)

Quick check: does AAAAAUGGAGGAUAUACAUGAGGAUCACCCAUGUGUAACUAUACUAAGCACACCUCACGUAGAAGGCCAAAAAA [Gilly Gone Silly 12 - Jieux - Exclusion 3] have apparent KD of MS2 coat protein greater than or equal to 40 nM?
true (1)

Quick check: does AGGAACCUAGGAUAUACAUGAGGAUCACCCAUGUCACGAGUCAAACACAGGUAUCCUAGUAGAAGGAGGAACAC [Inlaveor] have apparent KD of MS2 coat protein greater than or equal to 40 nM?
true (1)

Quick check: does AAAUAGUUAGGAUAUACAUGAGGAUCACCCAUGUGGACUUAUGGAGAAUAGUUUAAUGGUAGAAGGGACUAAAA [EX2 Malc#25] have apparent KD of MS2 coat protein greater than or equal to 40 nM?
false (0)

Quick check: does AGGAAACAUGAGGAUCACCCAUGUUAGGAUAUGAACGAAAUAAAAUAAAAAUAAAAGUUCAGAAGGAACAAAAA [Mat - Exclusion 1 - Eli mod - D19] have apparent KD of MS2 coat protein greater than or equal to 40 nM?
true (1)

Quick check: does GAAAAUUGAGGAUAUACGAACAUGUCAAAAGACGUGAAGGGACAUGAGGAUCACCCAUGUAGAAGGCGAAAAAG [Mat - Exclusion 2 - JL mod - D93] have apparent KD of MS2 coat protein greater than or equal to 40 nM?
false (0)
